Items are presented alongside their recorded IC50.
Molecular target: hTLR8 (Homo sapiens)
Construct: host or cells: HEK293 cells stably transfected with hTLR8
Test: HEK-293 hTLR8 transfectant antagonist assay (NF-κB driven SEAP reporter)
Format: cell-based
Details: IC50, nM, vs. VTX-378 10 μM, hTLR8 reporter cells; TLR8 agonist VTX-378 (Compound A) 10 μM

* CCOC(=O)C1=Cc2cc(-c3ccc(S(=O)(=O)N(C)C)cc3)ccc2N=C(N)C1 | ≥ 10000 nM
* CCOC(=O)C1=Cc2cc(Oc3ccc(C(=O)N(C)C)cc3)ccc2N=C(N)C1 | ≥ 10000 nM
* CCOC(=O)C1=Cc2cc(C3=CCN(C(=O)OCC)CC3)ccc2N=C(N)C1 | < 1000 nM
* CC(C)NC(=O)C1=Cc2cc(-c3ccc(C(=O)N4CCCC4)cc3)ccc2N=C(N)C1 | ≥ 10000 nM
* CCOC(=O)C1=Cc2cc(C(=O)OC(C)C)ccc2N=C(N)C1 | 1000 to 10000 nM
* CCOC(=O)C1=Cc2cc(-c3cccc(C(=O)N(C)C)c3)ccc2N=C(N)C1 | ≥ 10000 nM
* CCOC(=O)C1=Cc2cc(-c3ccc(C(=O)N(C)C)cc3)ccc2N=C(N)C1 | ≥ 10000 nM
* CCOC(=O)C1=Cc2cc(-c3ccccc3C)ccc2N=C(N)C1 | ≥ 10000 nM

Field: next compound
response.value for `CCOC(=O)C1=Cc2cc(-c3ccc(C(=O)N4CCCC4)cc3)ccc2N=C(NCCO)C1` (field: IC50) = ≥ 10000 nM

* * *

Target: hTLR8 (Homo sapiens, UniProt Q9NR97)
Construct: host or cells: HEK293 cells stably transfected with hTLR8
Sequence (Q9NR97 27-1041): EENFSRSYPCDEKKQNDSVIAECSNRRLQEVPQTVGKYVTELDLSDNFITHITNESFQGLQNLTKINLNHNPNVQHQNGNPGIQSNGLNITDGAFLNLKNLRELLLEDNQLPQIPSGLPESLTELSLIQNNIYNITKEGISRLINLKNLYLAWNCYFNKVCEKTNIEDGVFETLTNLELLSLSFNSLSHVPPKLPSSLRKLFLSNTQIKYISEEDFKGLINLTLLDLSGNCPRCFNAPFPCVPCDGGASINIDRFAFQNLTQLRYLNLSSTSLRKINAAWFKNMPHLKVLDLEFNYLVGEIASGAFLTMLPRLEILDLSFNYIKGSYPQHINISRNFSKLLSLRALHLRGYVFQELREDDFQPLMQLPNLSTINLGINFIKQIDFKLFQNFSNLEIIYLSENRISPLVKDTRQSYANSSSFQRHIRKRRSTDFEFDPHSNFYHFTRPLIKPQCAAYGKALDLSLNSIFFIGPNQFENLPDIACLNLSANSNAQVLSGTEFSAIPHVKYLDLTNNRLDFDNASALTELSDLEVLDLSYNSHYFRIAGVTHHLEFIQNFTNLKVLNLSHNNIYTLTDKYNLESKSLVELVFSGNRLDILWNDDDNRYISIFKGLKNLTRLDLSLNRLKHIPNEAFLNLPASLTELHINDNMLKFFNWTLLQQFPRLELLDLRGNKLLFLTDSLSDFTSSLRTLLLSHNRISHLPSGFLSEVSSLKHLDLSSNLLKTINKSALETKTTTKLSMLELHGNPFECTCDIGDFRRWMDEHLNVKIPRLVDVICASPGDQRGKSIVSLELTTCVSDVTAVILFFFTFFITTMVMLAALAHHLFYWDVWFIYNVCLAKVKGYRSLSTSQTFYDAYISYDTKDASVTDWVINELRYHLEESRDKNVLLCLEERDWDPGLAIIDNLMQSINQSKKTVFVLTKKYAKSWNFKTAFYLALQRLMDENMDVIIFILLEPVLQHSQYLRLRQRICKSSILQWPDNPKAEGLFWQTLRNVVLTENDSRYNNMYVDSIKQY
Assay: HEK-293 hTLR8 transfectant antagonist assay (NF-κB driven SEAP reporter)
Format: cell-based
Details: IC50, nM, vs. 3M002 10 μM, hTLR8 reporter cells; agonist 3M002 10 μM
Items are presented alongside their recorded IC50.

• CCOC(=O)C1=Cc2cc(Oc3cccc(C(F)(F)F)c3)ccc2N=C(N)C1 [Compound 3046] = 1000 to 10000 nM
• CCOC(=O)C1=Cc2cc(-c3ccc(OC)cc3)ccc2N=C(N)C1 [Compound 3098] = 1000 to 10000 nM
• CCCN(CC(N)=O)C(=O)C1=Cc2cc(-c3ccc(C(=O)N4CCCC4)cc3Cl)ccc2N=C(N)C1 [Compound 3342] = < 1000 nM
• CCOC(=O)C1=Cc2cc(-c3ccccc3C(F)(F)F)ccc2N=C(N)C1 [Compound 3126] = 1000 to 10000 nM
• CCOC(=O)C1=Cc2cc(-c3ccc(C(=O)N4CCCC4)cc3C)ccc2N=C(N)C1 [Compound 3119] = < 1000 nM

response.value for CCOC(=O)C1=Cc2cc(-c3ccc(C(=O)OCC)cc3)ccc2N=C(N)C1 [Compound 3101] (field: IC50) = ≥ 10000 nM

response.value for CCOC(=O)C1=Cc2cc(-c3ccc(N4CCOC4=O)cc3)ccc2N=C(N)C1 [Compound 3300] (field: IC50) = < 1000 nM

response.value for CCOC(=O)C1=Cc2cc(-c3ccccc3Cl)ccc2N=C(N)C1 [Compound 3127] (field: IC50) = 1000 to 10000 nM

* * *

Target: hTLR8 (Homo sapiens, UniProt Q9NR97)
Construct: host or cells: HEK293 cells stably transfected with hTLR8
Assay: HEK-293 hTLR8 transfectant antagonist assay (NF-κB driven SEAP reporter)
Format: cell-based
Conditions: IC50, nM, vs. VTX-378 1 μM, hTLR8 reporter cells; TLR8 agonist VTX-378 (Compound A) 1 μM
Items are presented alongside their recorded IC50.

Look over these answered cases.
- CCOC(=O)Nc1ccc(-c2ccc3c(c2)C=C(C(=O)OCC)CC(N)=N3)cc1 [Compound 3199]: < 1000 nM
- CCOC(=O)C1=Cc2cc(-c3ccccc3C)ccc2N=C(N)C1 [Compound 3096]: 1000 to 10000 nM
- CCOC(=O)C1=Cc2cc(Oc3ccc(C(=O)N(C)C)cc3)ccc2N=C(N)C1 [Compound 3093]: ≥ 10000 nM

response.value for CCOC(=O)C1=Cc2cc(-c3ccc(C(=O)OCC)cc3)ccc2N=C(N)C1 [Compound 3101] (field: IC50) = ≥ 10000 nM

response.value for CCOC(=O)C1=Cc2cc(-c3cccc(Cl)c3Cl)ccc2N=C(N)C1 [Compound 3155] (field: IC50) = ≥ 10000 nM

response.value for CCOC(=O)C1=Cc2cc(C3=CCN(C(=O)N4CCCC4)CC3)ccc2N=C(N)C1 [Compound 3254] (field: IC50) = 1000 to 10000 nM

response.value for CCCN(CC(N)=O)C(=O)C1=Cc2cc(-c3ccc(NC(=O)OCC)cc3Cl)ccc2N=C(N)C1 [Compound 3336] (field: IC50) = 1000 to 10000 nM

response.value for CCOC(=O)Nc1ccc(-c2ccc3c(c2)C=C(C(=O)OCC)CC(N)=N3)c(Cl)c1 [Compound 3261] (field: IC50) = < 1000 nM
